- Experimental target: Ory c 3 (Oryctolagus cuniculus, UniProt Q9GK63+Q9GK67)
- Sequence (Q9GK67 entry or part of it): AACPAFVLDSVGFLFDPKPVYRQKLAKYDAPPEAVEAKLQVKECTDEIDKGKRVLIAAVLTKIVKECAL
- Sequence (Q9GK63 entry or part of it): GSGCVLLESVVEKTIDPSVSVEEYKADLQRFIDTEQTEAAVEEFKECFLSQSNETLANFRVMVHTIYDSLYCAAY
- Experimental details: Competitive fluorescence-quenching assay, Ory c 3
- Type: binding, rabbit
- Condition summary: 5 μM Ory c 3-1-AMA complex, 50 μM ligand, n = 2; read-out: Mean fluorescence inhibition
Reported inhibition at 50 µM values for the following compounds.

| Compound | inhibition at 50 µM [%] |
| --- | --- |
| CC(C)CCCC(C)CCO (stereo not shown) | 91.1 |
| CCCCCCCCCCO | 98 |
| CCCCCCCCCC(=O)O | 76.1 |
| CCCc1ccc(O)cc1 | 93.2 |
| CCCCCCCCCCCCO | 95.6 |
| CC(C)=CCC/C(C)=C/CC/C(C)=C/CO | 91.3 |
| CCCCCCCCO | 68.8 |
